# Protocol Details: Toxicity liver stage against HepG2, at 10uM
# Format: cell-based
# Design: test concentration 10 uM, cell line HepG2-A16-CD81EGFP
# Test Parameters: human, HepG2-A16-CD81EGFP cells; read-out: INHIBITION
Measured Endpoint: cytotoxicity at 10 µM

response.value for OC1CCN(c2ccc(CNc3nc4ccccc4s3)cc2F)CC1 (field: cytotoxicity at 10 µM) = 1.71%

Given item O=C(Cc1ccccc1F)N1CCC[C@@H]1Cn1c(=O)oc2ccccc21 , the value recorded as its cytotoxicity at 10 µM is 2.69%

Form: molecule = O=C(NCc1csc(Br)c1)N1CCOCC1 ; cytotoxicity at 10 µM = -7.45%

For CCc1cnc2c(c1Nc1ccncc1)c(=O)n(C)c(=O)n2C the molecule record lists cytotoxicity at 10 µM as 1.86%

# molecule Cc1nnc(NC(=O)NCc2ccc(C)n2C)s1 ; its cytotoxicity at 10 µM = -2.08%

So for COc1ccc2c(C)c(C(=O)NCC3CN(S(C)(=O)=O)CCO3)oc2c1 (stereo unspecified) , the logged cytotoxicity at 10 µM turned out to be 9.52%

---

# Protocol Details: Toxicity liver stage against HepG2, at 10uM
# Type: cell-based
# Parameters: test concentration 10 uM, cell line HepG2-A16-CD81EGFP
# Test Parameters: human, HepG2-A16-CD81EGFP cells; read-out: INHIBITION
Measured Endpoint: cytotoxicity at 10 µM (%)
Reply numerically in %, unit not repeated.

Input CN1CCN(c2cnn(CCn3cccn3)c(=O)c2)CC1 . Output cytotoxicity at 10 µM: -47.4

compound CN(CC1(C)COC1)C(=O)c1cc(-c2cnn(C)c2)nc2ccccc12 , cytotoxicity at 10 µM observed: 0.89

Reported cytotoxicity at 10 µM ( COC(=O)N1CCc2ccccc2C1C(=O)NCc1ccncc1 (centres undefined) ) = -4.83

cytotoxicity at 10 µM recorded for this compound, CC(CNC(=O)c1cccc(-n2cccn2)c1)Cn1ccnc1 (centres undefined) , is 0.335

The reported cytotoxicity at 10 µM of the compound Cc1cccc(C(C)NCC2CCS(=O)(=O)CC2)c1 (centres undefined) was -2.67

Kindly note the recorded cytotoxicity at 10 µM for Cc1nc(C)n(CC2CCCN2Cc2coc(-c3cccs3)n2)n1 (centres undefined) , which is -9.61

Please fill in: cytotoxicity at 10 µM reported for CC(NC(=O)NCCCn1cccn1)c1cccnc1 (centres undefined) = 23.1

Form field cytotoxicity at 10 µM, entry O=C(c1cc(-c2cccnc2)[nH]n1)N1CCCC(Cc2ccccn2)C1 (centres undefined) : 7.5

Record CN(Cc1nnc2n1CCC2)C(=O)c1ccc2c(c1)OCCO2 . Reported cytotoxicity at 10 µM: -17.8

Recorded cytotoxicity at 10 µM (compound CC(C)CNS(=O)(=O)c1ccc(C(=O)N(C)CCc2cn[nH]c2)cc1 ): 4.48

Just so you know, measured cytotoxicity at 10 µM for COc1cc2[nH]c(=O)c(CN3CCC[C@@H]3C(N)=O)cc2c(OC)c1OC came out at -6.84

Record summary for Cc1nc(CN)cc(N2CCC(O)(c3ccc(Cl)cc3)CC2)n1 : reported cytotoxicity at 10 µM = -8.13

Measured cytotoxicity at 10 µM, Cc1noc(C)c1CN1C(=O)[C@@H]2CC[C@H]1CN(Cc1cccc(O)c1)C2 : 4.42

For record O=C(Cn1cc(I)cn1)N1CCCC1 the listed cytotoxicity at 10 µM is -0.653

Record Cc1ccccc1C(C(=O)NCCN1CCC(CO)CC1)N(C)C (centres undefined) , field cytotoxicity at 10 µM: -4.5

Notebook: COc1c(CNCCc2c[nH]c3cc(F)ccc23)c(C)nn1C , cytotoxicity at 10 µM read as -7.53

Please fill in: cytotoxicity at 10 µM reported for O=c1cc(-c2ccc(F)cc2)nc2n1CCCCC2 = -1.91

response.value for N#Cc1ccccc1N1CCCN(C(=O)CCc2nccs2)CC1 (field: cytotoxicity at 10 µM) = -2.12

Per the records, this compound ( Cc1cccc(N2CC[C@H]3CO[C@H](CN(C)Cc4ccco4)[C@H]3C2)n1 ) has cytotoxicity at 10 µM equal to 13.3

The reported value for CCOCCCNC(=O)c1ccccc1S(C)(=O)=O in terms of cytotoxicity at 10 µM is -1.58

// cytotoxicity at 10 µM value for CCC(CN1CCCC1)NC(=O)Cc1c(C)[nH]c2cc(C)cc(C)c12 (centres undefined) : 2.73

Lab note: O=C(NC1CCCN(CCCc2ccccc2)C1)C1=CCCCC1 (centres undefined) gave cytotoxicity at 10 µM of -0.739

cytotoxicity at 10 µM reported for this compound O=C1C(n2nnc(-c3ccsc3)n2)CCN1CC(F)(F)F (centres undefined) : 0.519

Reported cytotoxicity at 10 µM for Cc1cc(C)n(CC2CCCN2Cc2cccc(C#N)c2)n1 (centres undefined) was 11.2

---

# Protocol Details: Toxicity liver stage against HepG2, at 10uM
# Assay type: cell-based
# Design: test concentration 10 uM, cell line HepG2-A16-CD81EGFP
# Test Parameters: human, HepG2-A16-CD81EGFP cells; read-out: INHIBITION
Measured Endpoint: cytotoxicity at 10 µM (%)
Answer format: numeric, % implied, no suffix.

Form field cytotoxicity at 10 µM, entry CC(NCCN1CCN(C(=O)C2CCCC2)CC1)c1ccccn1 (stereo unspecified) : -2.17

// Nc1nccnc1C1CN(C(=O)c2cnc(C3CC3)nc2)CCO1 (stereo unspecified) : cytotoxicity at 10 µM value = -27

For Cc1cccc2nc(CNC(=O)N3CCC(N4CC=CC4)C3)cn12 (stereo unspecified) the molecule record lists cytotoxicity at 10 µM as 5.88

Query CN(C)c1cc(CNC(=O)c2cccnc2O)ccn1 yields cytotoxicity at 10 µM of -5.26

The recorded cytotoxicity at 10 µM for Cc1nnc([C@@]23CCO[C@@H]2CCN(Cc2scnc2C)C3)o1 is -111

In plain terms, CC(C)c1nnc(N2C[C@H]3CC[C@@H](C2)N(CC2CCC2)C3)s1 has a documented cytotoxicity at 10 µM of -7.38

---

# Protocol Details: Toxicity liver stage against HepG2, at 10uM
# Type: cell-based
# Design: test concentration 10 uM, cell line HepG2-A16-CD81EGFP
# Test Parameters: human, HepG2-A16-CD81EGFP cells; read-out: INHIBITION
Assign cytotoxicity at 10 µM to each entry below.
Answer shape: numeric part, then the unit.

Reported cytotoxicity at 10 µM ( Cc1ccc(CN2C[C@@H]3CN(CC4CCOCC4)CCO[C@@H]3C2)s1 ) = -12.7%

The recorded cytotoxicity at 10 µM for CCn1ncnc1C1CC(=O)NCc2nc(N)sc21 (stereo unspecified) is -4.78%

Field cytotoxicity at 10 µM (entry CCC(C(=O)N1CCCSCC1)N1CCCC1=O (stereo unspecified) ) reads 6.27%

Briefly, cytotoxicity at 10 µM measured for Cc1ccc(NC(=O)c2cccc(N(C)C)c2)nc1 : 8.77%

// CS(=O)(=O)NCCCN1CCCC1c1ccsc1 (stereo unspecified) : cytotoxicity at 10 µM value = 2.85%

For Cc1cnc(CC2COCCN(C(=O)CN3CCOCC3)C2)cn1 (stereo unspecified) the compound record lists cytotoxicity at 10 µM as 9.07%

Per the record, O=C(Cc1ccccn1)N1C[C@H](OCc2cccnc2)[C@H]2COC[C@H]21 has cytotoxicity at 10 µM of 12.3%

The compound listed as CN(Cc1cc(C2CC2)[nH]n1)Cc1cc2ccc(F)cc2[nH]c1=O shows cytotoxicity at 10 µM equal to 7.84%

The recorded cytotoxicity at 10 µM for entry COCCNc1ncnc2c1CCN(C(=O)CC1CCC(=O)N1)CC2 (stereo unspecified) equals 1.15%

Query CC(C)CN1CC[C@@H]2[C@@H]1CCN2S(=O)(=O)c1cccs1 yields cytotoxicity at 10 µM of 2.61%

Short answer for CCN1CCCN(S(=O)(=O)c2cc3ccccc3o2)CC1 : cytotoxicity at 10 µM was 3.53%

---

# Protocol Details: Toxicity liver stage against HepG2, at 10uM
# Type: cell-based
# Parameters: test concentration 10 uM, cell line HepG2-A16-CD81EGFP
# Test Parameters: human, HepG2-A16-CD81EGFP cells; read-out: INHIBITION
I'd appreciate it if you could supply cytotoxicity at 10 µM values for the items below.
Write down the numeric answer in % and omit the unit.

Given item CCCN(Cc1ccccc1O)S(=O)(=O)N(C)CC , the value recorded as its cytotoxicity at 10 µM is 10.2

Entry Cc1ccc(-c2nc(C3CCN(C(=O)c4cnn(C)c4)CC3)no2)cn1 — recorded cytotoxicity at 10 µM = -1.55

// cytotoxicity at 10 µM lookup, compound = CC1CCN(C)c2ccccc2N1C(=O)c1ccc(=O)n(C)c1 (configuration not stated) , result: -0.117

cytotoxicity at 10 µM measured on O=C(CCCc1ncc(-c2ccccc2)o1)N1CCN(CCO)CC1 = -4.69

cytotoxicity at 10 µM recorded for this compound, Cc1ccc(CN(C(=O)NC2CCS(=O)(=O)C2)C2CC2)o1 (configuration not stated) , is -155

Entry under test: OCC1(NCc2cnc(-c3cccs3)s2)CCOCC1 . Its cytotoxicity at 10 µM was -1.99

The value of cytotoxicity at 10 µM measured for the compound NC(=O)N1CCCN(C(=O)Nc2cc(-n3cccc3)ccc2F)CC1 turned out to be -2.09

COCCN(Cc1ccccn1)C(=O)Nc1cccnc1N1CCCC1 yielded cytotoxicity at 10 µM of 4.03

// cytotoxicity at 10 µM lookup, compound = O=C(Nc1ccccc1-c1cccs1)N1CCOCC1 , result: -5.01

cytotoxicity at 10 µM for Cc1noc(C)c1CN(C)Cc1csc(-c2ccccc2F)n1 is 37.2

Entry N#Cc1cccc(C(=O)Nc2ccc([C@@H](O)[C@H]3COCC(=O)N3)cc2)c1 — recorded cytotoxicity at 10 µM = -4.25

cytotoxicity at 10 µM recorded for this compound, CCN(Cc1ccccc1)C(=O)CN1CCCCC1Cn1cncn1 (configuration not stated) , is 7.15
